- Tested on: SK-MEL-2 melanoma
- measurement-notes: NCI-60 one-dose screen, 48 h (100 = growth as untreated, 0 = no growth, -100 = all killed)
- particulars: 10 µM unless noted
Compounds without any hit were thinned out: in the full panel of roughly 83,000, 20% have a hit.
Response field label: string, one of Condition met (growth strictly below 60%) or Condition not met.

(Q) # strict comparison: is reported growth < 60%? input = "O=C1/C(=C/c2ccc(Oc3ccccc3)cc2)N=C(c2ccccc2)N1CCc1cccs1"
(A) Condition not met

(Q) # strict comparison: is reported growth < 60%? input = "COc1cc(/C=C/c2cc(/C=C/c3ccc(O)c(OC)c3)n(-c3ccccc3)n2)ccc1O"
(A) Condition met

(Q) # strict comparison: is reported growth < 60%? input = "Cc1cc(=O)c2c(C)ccc(C)c2[nH]1"
(A) Condition not met

(Q) # strict comparison: is reported growth < 60%? input = "CCCCNNC(=O)c1ccc(Br)cc1"
(A) Condition met

(Q) # strict comparison: is reported growth < 60%? input = O=C(c1ccccc1)C(Br)C(Br)c1cccc([N+](=O)[O-])c1 (stereo not drawn)
(A) Condition not met

(Q) # strict comparison: is reported growth < 60%? input = "COc1cc2oc(-c3ccc(O)cc3)cc(=O)c2c(O)c1I"
(A) Condition not met

(Q) # strict comparison: is reported growth < 60%? input = "O=C(c1ccc2ncc(-c3nc(NC4CC4)ncc3F)n2c1)N1CCOCC1"
(A) Condition met

(Q) # strict comparison: is reported growth < 60%? input = "COC(=O)c1c2c(c(C)[n+]([O-])c1C)C(=O)C=C(NCc1cccc(Cl)c1)C2=O"
(A) Condition met

(Q) # strict comparison: is reported growth < 60%? input = "COc1cc(CNCCN2C(=O)c3ccc4c5c(ccc(c35)C2=O)C(=O)N(CCNCc2cc(OC)c(OC)c(OC)c2)C4=O)cc(OC)c1OC"
(A) Condition met

(Q) # strict comparison: is reported growth < 60%? input = "O=C1c2c(c3c4cc(Br)ccc4[nH]c3c3ccc4ccccc4c23)C(=O)N1O"
(A) Condition not met

(Q) # strict comparison: is reported growth < 60%? input = COc1cc(/C=N/NC(=O)c2cnn3c2NC(c2ccccc2)C3)cc(OC)c1OC (stereo not drawn)
(A) Condition met

(Q) # strict comparison: is reported growth < 60%? input = "Cc1ccc(C(=O)Nc2ccccc2N)cc1"
(A) Condition met

(Q) # strict comparison: is reported growth < 60%? input = "COc1ccc(C(=O)C2=CC(=O)C(=O)C2)cc1OC"
(A) Condition not met

(Q) # strict comparison: is reported growth < 60%? input = "O=C1C(Cl)=C(NCCCN2CCOCC2)C(=O)c2ccccc21"
(A) Condition not met

(Q) # strict comparison: is reported growth < 60%? input = "COc1ccc(/C=C/C(=O)N2CCC(O)CC2)cc1OC1CCCC1"
(A) Condition not met

(Q) # strict comparison: is reported growth < 60%? input = "COc1ccccc1CNCCCCCCCCCCCCN1C(=O)c2ccc3c4c(ccc(c24)C1=O)C(=O)N(CCCCCCCCCCCCNCc1ccccc1OC)C3=O"
(A) Condition not met

(Q) # strict comparison: is reported growth < 60%? input = COc1ccc(C2SC(C)C(=O)N2CCc2cccs2)cc1OC (stereo not drawn)
(A) Condition not met
